Let's look at some pIC50 data for SYK kinase (Homo sapiens, UniProt P43405) that I collected from the literature.
pIC50: −log10 of the molar value.

Known pIC50 results, listed for orientation:
Cc1ccc(-n2nc(C(C)(C)C)cc2NC(=O)Nc2ccc(OCc3ccnc(Nc4cnccn4)c3)c3ccccc23)cc1C ... < 4.79
Cc1nn(C)cc1-c1nccn2nc(Nc3ccc4c(c3)NC(=O)C4(C)C)nc12 ... 6.52 to 7.00

Find the measured pIC50: item COc1cc(-c2cc3nccc(-c4cccc(C(=O)N[C@@H]5CCC[C@@H]5O)c4)c3o2)cc(OC)c1OC , target or system SYK kinase (Homo sapiens, UniProt P43405). 4.30 to 5.52

Find the measured pIC50: item CC1(C)OC(C(F)(F)F)Nc2cc(Nc3nc4c(N5CCCCCC5)nccn4n3)ccc21 (centres unmarked) , target or system SYK kinase (Homo sapiens, UniProt P43405). > 7.00

Identify the measured pIC50 of COc1nn(C2CCN(C(C)(C)C)CC2)cc1Nc1nc2ccc(S(C)(=O)=O)cc2c2cn[nH]c12 for SYK kinase (Homo sapiens, UniProt P43405). 6.00 to 7.00

====

Here we gather IC50 data for SYK kinase (Homo sapiens) reported by several publications.
outcome measure: IC50 (nM)

A selection of reference data follows.
CC(C)c1ccc(-n2nc(C(C)(C)C)cc2NC(=O)Nc2ccc(OCc3ccnc(Nc4cnccn4)c3)c3ccccc23)cc1 ... 6130
CN(C)c1ccc(-c2cc3nccnc3c(O[C@H]3CCOC3)n2)cc1 ... 130

(1) NS(=O)(=O)N1CCO[C@H](COc2nc(-c3ccc(C4(O)CCC4)cc3)cc3nccnc23)C1
(2) COc1ccc(-n2nc(C(C)(C)C)cc2NC(=O)Nc2ccc(Oc3ccnc(Nc4ccc5[nH]nc(OCCN6CCOCC6)c5c4)n3)c3ccccc23)cc1
Would you let me know which has the greater IC50 value, 1 or 2 ? Answer = label. 1

====

Reported IC50 against SYK kinase (Homo sapiens, UniProt P43405), gathered from multiple publications, appears below.
outcome measure: IC50 (nM)

(1) CCP(=O)(CC)Cc1cccc(-n2nc(C(C)(C)C)cc2NC(=O)Nc2ccc(Oc3ccnc(Nc4cc(C)c5[nH]ncc5c4)n3)c3ccccc23)c1
(2) N#Cc1ccc2sc(-c3nc(N[C@@H]4CCOC[C@@H]4N)c(F)c4c3C(=O)NC4)cc2c1
Given the listed items, does 1 or 2 have the lesser reported IC50? # reply format: chosen label 2

(A) CC(=O)N(C)c1ccc(Nc2nc(NC3CCC3)c3nc[nH]c3n2)cc1
(B) C#Cc1cc(Nc2nccc(Oc3ccc(NC(=O)Nc4cc(C(C)(C)C)cc(NS(C)(=O)=O)c4OC)c4ccccc34)n2)cc(C(=O)NCCN2CCOCC2)c1
(C) Cc1cc(Nc2nccc(Oc3ccc(NC(=O)Nc4cc(C(C)(C)C)nn4-c4ccc(=O)n(CCN5CCOCC5)c4)c4ccccc34)n2)cc2cn[nH]c12
Task field, ranking: reported IC50, descending order. # format: label list in the order the request specifies B, A, C
(B: 51 nM, A: 10 nM, C: 3 nM)

====

Please find below IC50 data on UniProtKB P43405 compiled from the literature.

Check out these entries, answers already filled in.
Cn1c(=O)c(Nc2ccc(N3CCOCC3)cc2)nc2ccc(-c3cn[nH]c3)cc21 ... 4.2 nM
CCC1C(=O)NCCN1c1ncc(-c2cccc(Nc3nccc(C)n3)c2)o1 (centres unmarked) ... ≤ 100 nM
CN(C)c1nccn2nc(Nc3ccc4c(c3)NC(=O)C4(C)C)nc12 ... < 100 nM
COc1cc(Nc2nc(-c3ccccc3F)nc3cn[nH]c23)ccc1N1CCOCC1 ... 10 to 100 nM
COC1CCN(c2ccc(-c3cc4nccnc4c(OC[C@@H]4CN(C(C)=O)CCO4)n3)cc2)CC1 ... 87 nM
CCOc1ccn(-c2ccc(F)cc2)c(=O)c1C(=O)Nc1ccc(Oc2ccnc3cc(-c4ccccc4)oc23)cc1 ... 300 to 3000 nM
COc1cc(-c2cc3nccc(-c4cccnc4)c3o2)cc(OC)c1OC ... < 300 nM
COc1cc(-c2cc3nccc(-c4cccc(CNC(C)=O)c4)c3o2)cc(OC)c1OC ... < 300 nM
COc1cc(Nc2nc3c(-c4cccnc4)nccn3n2)cc(OC)c1 ... < 300 nM
CC(C)n1cc(Nc2nc(-c3cocn3)nc3cn[nH]c23)cn1 ... < 10 nM

Form entry - test system: UniProtKB P43405; read-out: IC50; compound: CC1(C)C(=O)Nc2cc(Nc3nc4c(N[C@@H]5CCCNC5)nccn4n3)ccc21 100 to 300 nM

Form: Entry = Cc1ccnc(Nc2cccc(-c3cnc(N4CCNC(=O)C4CCO)o3)c2)n1 (centres unmarked) | System = UniProtKB P43405 | IC50 = ____ 100 to 1000 nM

What is its IC50 for UniProtKB P43405? Entry: Cn1c(=O)c(Nc2ccc(C3(O)COC3)cn2)cc2c(F)c(-c3cc[nH]n3)ccc21 38.5 nM

Lookup: IC50 / UniProtKB P43405 / CCSc1n[nH]c2nc(Nc3ccc(N4CCOCC4)cc3)nc(NCCCCN)c12 ≤ 200 nM

Any idea what IC50 came out for COc1cc(-c2cc3nccc(Nc4ccc5c(c4)NC(=O)C(F)(F)O5)c3o2)cc(OC)c1OC on UniProtKB P43405? 300 to 3000 nM

Observed IC50 on UniProtKB P43405 for Cc1cccc(Nc2nc3c(Nc4ccc5c(c4)NC(=O)C(F)(F)O5)nccn3n2)c1 , please. 3000 to 50000 nM

Any idea what IC50 came out for O=C(C(F)F)N1CCO[C@H](COc2nc(-c3ccc(N4CCOCC4)cc3)cc3nccnc23)C1 on UniProtKB P43405? 27 nM
